molecular target: human H4 receptor (Homo sapiens); experiment: biochemical;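 also: radioligand displacement of a [3H]-labelled ligand from membranes of CHO cells stably expressing human H4 receptor, bound radioactivity counted on filters by liquid scintillation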
Sequence (Q9H3N8 whole entry): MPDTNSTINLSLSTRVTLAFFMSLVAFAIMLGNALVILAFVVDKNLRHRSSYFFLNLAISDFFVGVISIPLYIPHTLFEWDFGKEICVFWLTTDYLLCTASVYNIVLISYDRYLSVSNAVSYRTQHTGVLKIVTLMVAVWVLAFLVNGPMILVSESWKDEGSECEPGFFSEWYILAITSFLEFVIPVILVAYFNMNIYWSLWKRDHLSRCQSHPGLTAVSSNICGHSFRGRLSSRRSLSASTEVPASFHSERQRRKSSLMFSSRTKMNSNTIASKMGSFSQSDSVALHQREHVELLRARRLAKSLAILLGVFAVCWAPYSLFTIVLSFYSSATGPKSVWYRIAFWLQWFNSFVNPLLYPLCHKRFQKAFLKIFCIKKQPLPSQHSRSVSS
Counter-ions that a name gives are not always drawn.
Assignment: determine reported Ki for the given compounds.

[ask] Kindly indicate its recorded Ki. Item: CN1CCC(OC2c3ccccc3CCn3c2nc(-c2ccccc2Cl)c3C(N)=O)CC1 (stereo not shown) [Example 273]
[reply] < 300 nM

[ask] Kindly indicate its recorded Ki. Item: CN1CCC(OC2c3ccccc3CCn3cc(-c4ccc(CCN(C)C(=O)OC(C)(C)C)cc4)nc32)CC1 (stereo not shown) [Example 197]
[reply] < 30 nM

[ask] Kindly indicate its recorded Ki. Item: Cc1c(-c2ccc(N3CCCCC3=O)cc2)nc2n1CCc1ccccc1C2OC1CCN(C)CC1 (stereo not shown) [Example 162, oxalate]
[reply] < 300 nM

[ask] Kindly indicate its recorded Ki. Item: Cc1c(-c2ccc(SCCNC(=O)OC(C)(C)C)cc2)nc2n1CCc1ccccc1C2OC1CCN(C)CC1 (stereo not shown) [Example 160, oxalate]
[reply] < 30 nM

[ask] Kindly indicate its recorded Ki. Item: CN1CCC(OC2c3ccccc3CCn3cc(-c4ccc(NC(=O)OC(C)(C)C)cc4)nc32)CC1 (stereo not shown) [Example 49]
[reply] < 30 nM

[ask] Kindly indicate its recorded Ki. Item: CN1CCC(OC2c3ccccc3CCn3cc(CCc4cccs4)nc32)CC1 (stereo not shown) [Example 126, oxalate]
[reply] < 300 nM

[ask] Kindly indicate its recorded Ki. Item: CN1CCC(OC2c3cccc(Br)c3CCn3cc(-c4ccccc4)nc32)CC1 (stereo not shown) [Example 231]
[reply] < 300 nM

[ask] Kindly indicate its recorded Ki. Item: Cc1c(-c2cccc(Cl)c2)nc2n1CCc1ccccc1C2OC1CCN(C)CC1 (stereo not shown) [Example 145]
[reply] < 30 nM

[ask] Kindly indicate its recorded Ki. Item: CN1CCC(OC2c3ccccc3CCn3cc(Sc4ccccc4)nc32)CC1 (stereo not shown) [Example 73, oxalate]
[reply] < 300 nM

[ask] Kindly indicate its recorded Ki. Item: CN1CCC(OC2c3ccccc3CCn3c2nc(-c2ccc(NC(=O)OC(C)(C)C)cc2)c3Cl)CC1 (stereo not shown) [Example 141]
[reply] < 30 nM

[ask] Kindly indicate its recorded Ki. Item: CN1CCC(OC2c3ccccc3CCn3cc(-c4ccc(CN5CCN(C(C)(C)C)C5=O)cc4)nc32)CC1 (stereo not shown) [Example 191]
[reply] < 300 nM

[ask] Kindly indicate its recorded Ki. Item: Cc1c(-c2ccc(C=CS(C)(=O)=O)cc2)nc2n1CCc1ccccc1C2OC1CCN(C)CC1 (stereo not shown) [Example 158]
[reply] < 30 nM

[ask] Kindly indicate its recorded Ki. Item: Cc1c(-c2ccc(SCc3ccco3)cc2)nc2n1CCc1ccccc1C2OC1CCN(C)CC1 (stereo not shown) [Example 167, oxalate]
[reply] < 30 nM
